- Tgt: Voltage-gated inwardly rectifying potassium channel KCNH2 (Homo sapiens)
- Assay Summary: hERG protection against dofetilide inhibition, confirmation, cell-based, thallium flux, duplicate retest, dofetilide IC70 (AID 1835)
- Study Conditions: hERG cell line, FluxOR thallium flux, dofetilide-blocked; at 10 µM; stronger effect = higher value
Hit rate of the full screen: of about 2,400 compounds, about 750 (31%) were called active. The list shows a part of the results.
Measured Metric: activity increase over dofetilide control, less the hit threshold (%)

>>> meas_value("Cc1nn(C)c(C(=O)NC(=S)Nc2ccc([N+](=O)[O-])cc2)c1Cl")
18
>>> meas_value("Cn1nnnc1SCC(=O)NC1CCCc2ccccc21 (stereo unspecified)")
-21
>>> meas_value("Cc1ccc(/C(O)=C/C(=O)C(=O)NC23CC4CC(CC(C4)C2)C3)cc1")
10
>>> meas_value("CC1CC(C)CN(CCCNC(=O)Cc2c(C(=O)O)[nH]c3ccccc23)C1 (stereo unspecified)")
-14
>>> meas_value("Cc1ccc(NC(=O)c2c([N+](=O)[O-])c(C(C)(C)C)nn2C)cc1")
-1
>>> meas_value("Cc1nn(CCC(=O)NNC(=S)Nc2ccc(F)cc2)c(C)c1[N+](=O)[O-]")
-24
>>> meas_value("O=c1c2ccccc2nc(-c2ccc(Cl)c(Cl)c2)n1O")
36
>>> meas_value("CC(=O)NC(CSC(CC(=O)c1ccco1)c1ccc(C)cc1)C(=O)O (stereo unspecified)")
-15
>>> meas_value("CSc1ccc(CNc2nc3ccccc3n3cnnc23)cc1")
-20
>>> meas_value("Cc1[nH]c(=S)c(C#N)c(C)c1Cc1ccc(Cl)cc1Cl")
-12
>>> meas_value("CCc1nnc(NC(=O)CCC(=O)N2CCN(C3CCCCC3)CC2)s1")
-22
>>> meas_value("Cc1nn(-c2ccccc2)c(Cl)c1/C=C1\\SC(=S)NC1=O")
51
>>> meas_value("Cc1cc([N+](=O)[O-])ccc1-c1ccc(C2Nc3ccccc3C(=O)N2O)o1 (stereo unspecified)")
7
>>> meas_value("Cc1ccc(O)c(C(=O)CC(=O)c2ccccc2Cl)c1")
-2
>>> meas_value("Cc1nn(-c2ccccc2)c(N2CCCC2)c1/C=N/O")
-16
>>> meas_value("Nc1ccc(NC(=O)Nc2ccc(N)cc2)cc1")
-3
>>> meas_value("Cc1oc(-c2cccs2)nc1CN1CCC(C(=O)N2CCCC2)CC1")
-11
>>> meas_value("CCCCC1(O)CC(C(F)(F)F)=NN1C(=O)COc1ccccc1 (stereo unspecified)")
4
>>> meas_value("Cc1c(C)n(CCN(C)C)c2ccc(C(=O)OCCN(C)C)cc12")
-7
>>> meas_value("COc1cc(C(=O)NCc2ccc(-c3nc4ccccc4o3)cc2)cc(OC)c1OC")
-12
>>> meas_value("CCOC(=O)C1=C(c2ccccc2)NC(=O)NC1c1ccc(OC)c(OC)c1 (stereo unspecified)")
-6
>>> meas_value("COc1ccc(-c2nc(=S)c3ccc4ccccc4c3[nH]2)cc1")
76
>>> meas_value("CCN(C(=O)c1cc2c(=O)[nH]c3ccc(C)cc3c2s1)c1ccccc1F")
-15
>>> meas_value("Cc1ccc(CNS(=O)(=O)c2cc3c4c(c2)CCN4C(=O)CC3)cc1")
-9
>>> meas_value("Nn1c(SCC(=O)Nc2ccc(OC(F)F)cc2)nnc1-c1ccco1")
-12
>>> meas_value("Nc1cccc2c1C(=O)N(CC(=O)NC13CC4CC(CC(C4)C1)C3)C2=O")
-9
>>> meas_value("O=C(NCc1ccco1)C1CCN(C(=O)Cc2ccccc2)CC1")
-7
>>> meas_value("Cn1nnnc1SCC(=O)Nc1ccccn1")
4
>>> meas_value("O=C(NC(=S)Nc1ccccc1N1CCCC1)c1ccccc1Br")
-2
>>> meas_value("O=C(O)C1C2CCC(O2)C1C(=O)Nc1ccc(F)c(Cl)c1 (stereo unspecified)")
-7
>>> meas_value("CCOC(=O)C1=C(Cn2cnc3ccccc32)NC(=O)NC1c1cc(C)ccc1C (stereo unspecified)")
-10
>>> meas_value("COc1ccccc1C1C(C(=O)c2ccc(C)o2)=C(O)C(=O)N1c1cc(C)on1 (stereo unspecified)")
-1
>>> meas_value("O=C1CC(C(=O)N2CCOCC2)C2(CCCCC2)O1 (stereo unspecified)")
-19
>>> meas_value("O=C(Nn1cnnc1)c1ccncc1")
-14
>>> meas_value("COc1ccc(/C(C)=N/Nc2ccc(C(=O)O)cc2)c(OC)c1")
-12
>>> meas_value("O=C(/C=C/c1ccccc1)CC(=O)c1ccccc1O")
11
>>> meas_value("O=C(C1CC1)N1N=C(c2ccccc2)CC1(O)C(F)(F)C(F)(F)F (stereo unspecified)")
-11
>>> meas_value("Cc1nn(-c2ccccc2)c(C)c1S(=O)(=O)O")
-6
>>> meas_value("COc1ccc(-c2ccc3c(N)c(C(=O)c4ccc(OC)c(OC)c4)sc3n2)cc1")
-9
>>> meas_value("CCCCc1cc(=O)oc2c(C)c(OCC(=O)NCc3ccccn3)ccc12")
-9
>>> meas_value("CCOC(=O)c1c(N2C(=O)Nc3ccccc3N2O)n[nH]c1-c1cccc(Cl)c1")
-4
>>> meas_value("COc1ccc(-n2c(=S)[nH]c3ccccc3c2=S)cc1")
-12
>>> meas_value("Cc1ccc(-c2onc3ccc(Cl)cc23)cc1")
0
>>> meas_value("COc1cc(C2NC(=O)NC(C)=C2C(=O)OCC2CCCCC2)ccc1O (stereo unspecified)")
-3
>>> meas_value("CCCCOC(=O)c1ccc(NC(=S)NC(=O)c2c(Br)c(C)nn2C)cc1")
38
>>> meas_value("CCCCCCc1c(O)nc(SCC(=O)O)[nH]c1=O")
-16
